Hello, the source for this data is ChEMBL document CHEMBL4513216, in case you need it.

Parameter INHIBITION: see the listing below.
System: Plasmodium berghei
Experiment: Screen against P. berghei liver stage (PbLuc), transformed with Luciferase, at 10uM
Type: functional, HepG2
Details: tested at 10 uM
Out of some 69,000 compounds screened, about 8,600 (12%) showed an effect of 50% or more. The full list was thinned out, with strong results kept by preference.
Write down the numeric answer in % and omit the unit.

Examples with answers:
INSERT INTO results (compound, value) VALUES
  ('Cc1c2ncn(CC(=O)N(C)C)c(=O)c2nn1C', 0),
  ('CNc1nc(CNC(=O)Nc2cccc(COCCOC(C)C)c2)cs1', 52.4),
  ('Cc1nc(N2Cc3cnn(Cc4ccc(F)cc4)c3C2)no1', 12.8),
  ('COc1cccc(CN2CCCCC2CN2CCOCC2)c1F (centres undefined)', 60.4),
  ('CCC[C@H]1CN(Cc2ccc(N(C)C)nc2)C[C@@H]1NS(=O)(=O)CC', 46.6);

Give the measured INHIBITION of "COc1cccc(CN2C[C@H]3CC[C@H]2C3)c1OCCN1CCOCC1" .
-14.5

Give the measured INHIBITION of CC(C)(C)C(=O)N1CCCC1c1nccnc1Cl (centres undefined) .
-7.66

Give the measured INHIBITION of "Cc1c2ncn(CC(=O)NC(C)C)c(=O)c2nn1C" .
48.5
